Method: in vivo
Study conditions: male, Wistar Han, rat, iv, 1 mg/kg, Plasma Concentration (uM)
Reported property: level at time molar at 2 h (µM)
Give just the number in µM; leave the unit off.

What the record says about O=C1C[C@H]2CCCN2C(=O)[C@H](Cc2ccccc2)NC(=O)[C@@H](NC(=O)c2ccc(Cl)s2)CCC=CCCCCN1 [peptide 43] : level at time molar at 2 h is 0.29

###

Tested on: human α-thrombin (Homo sapiens)
Method: Sub-library screen for active and permeable cyclic peptides (PAMPA plus thrombin inhibition)
Type: biochemical
Study conditions: PAMPA acceptor well after 14 h, 5 μM donor; crude; slopes normalized to DMSO
Reported property: Residual thrombin activity: Top sample
I'd appreciate a reply containing only the number, no unit.

See these solved cases before continuing.
- Cc1cccc(C[C@@H]2NC(=O)[C@@H](NC(=O)c3ccc(Cl)s3)CCCSCc3ccc(cc3)CSCCNC(=O)C[C@H]3CCCN3C2=O)c1: 90.5
- O=C1CSCCNC(=O)C[C@H]2CCCN2C(=O)[C@H](Cc2ccc(Cl)cc2)NC(=O)[C@@H](NC(=O)c2ccc(Cl)s2)CCSC1: 104.6
- O=C1C[C@H]2CCCN2C(=O)[C@H](Cc2ccc(C(F)(F)F)cc2)NC(=O)[C@@H](NC(=O)c2ccc(Cl)s2)CSCc2ccccc2CSCCN1: 91.2
- N#Cc1ccc(C[C@@H]2NC(=O)[C@@H](NC(=O)c3ccc(Cl)s3)CCSCc3cccc(n3)CSCCNC(=O)C[C@H]3CCCN3C2=O)cc1: 95.8
- O=C1C[C@H]2CCCN2C(=O)[C@H](Cc2ccc(Cl)cc2)NC(=O)[C@@H](NC(=O)c2ccc(Cl)s2)CCCSCc2ccc(cc2)CSCCN1: 101.2

// next item, Residual thrombin activity: Top sample requested
What the record says about `COc1ccc(C[C@@H]2NC(=O)[C@@H](NC(=O)c3ccc(Cl)s3)CSC/C=C/CSCCNC(=O)C[C@H]3CCCN3C2=O)cc1` : Residual thrombin activity: Top sample is 95.0
